Known apparent KD of MS2 coat protein of a selection of sequences
test system: MS2 coat protein; assay: apparent KD of MS2 coat protein; designed switch direction (-1 OFF switch, 1 ON switch): -1; higher = weaker reporter binding; details: input ligand: none
Field format: number, assumed nM, no unit text.

Example entries and their recorded answers appear below.
UUCGGCGGAGGAUAUACAGUUUUUUGUUGAAUCGGCGGGAAACAUGAGGAUCACCCAUGUAGAAGGUUGUUGAA [-18.7, -16.7 kcal, A 27%] (Eterna round: R97, puzzle: Exclusion 2)	78
UCCUCACAUGAGGAUCACCCAUGUCAGGAUAUACCCAUCCAGCGAAAUUAAAGCUGUAGUAGAAGGGACAUGCA [Raertele] (Eterna round: R97, puzzle: Exclusion 1)	20.1
UCGAGUGCUGAGGAUAUCUGCGAGUAAAGCUCAAGAGAAGGCAGUACAUGAGGAUCACCCAUGUGGAGCCUGUG [EX6 B.27] (Eterna round: R97, puzzle: Exclusion 6)	21.6

Now for a further sequence.
Entry CUGAGCAGACGGAGAUCCCACAUGAGGAUCACCCAUGUCUCAAAAGCUUUUUGCUUGUCUUAUUCUCCUCUGUUCUC [Arorza] (Eterna round: R96, puzzle: Sensor v3, turn-off variant 1) — recorded apparent KD of MS2 coat protein = 15.8
